Each recorded value in this set is attributed to patent US20100003217A1.

System: Huh-7 cells
assayRemarks: Metabolic disposition of [^14C]-Compound 1 and [^14C]-2′-C-methyl guanosine in Huh-7 cells (incubation medium, cellular extracts, nucleotide levels)
Type: in vitro ADME, human
experimentalConditions: Huh7; 10 μM [^14C]-Compound 1; 24 h; first series
measuredAttribute: Major metabolites observed in cellular extracts (% of total radioactivity)

>  <molecule>
CC(C)(CO)C(=O)SCCOP(=O)(NCc1ccccc1)OC[C@H]1O[C@@H](n2cnc3c(=O)[nH]c(N)nc32)[C@](C)(O)[C@@H]1O (mixture of isomers)

>  <valueMeasured>
40.3 % of total radioactivity

$$$$

Next up:
State, in one line, measured Major metabolites observed in cellular extracts (% of total radioactivity) of C[C@@]1(O)[C@H](O)[C@@H](COP(=O)(O)OP(=O)(O)OP(=O)(O)O)O[C@H]1n1cnc2c(=O)[nH]c(N)nc21
59.7 % of total radioactivity
